Test system: RARb:RXRa (NR concentration 270 nM, RXRa partner concentration 90 nM)
experimental details: PBM binding z-score (relative to random genomic background probes); higher = stronger binding; sequences stand for … in GC…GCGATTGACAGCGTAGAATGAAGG
Binning scheme for PBM binding z-score: 1 (below 0.7), 2 (0.7 to below 3), 3 (3 or more)

Challenge: Which category does the recorded PBM binding z-score put ATCTATAGGTAAAGTTCAGTGAAAGATCGATAGA in?
Response given: 2

Challenge: Which category does the recorded PBM binding z-score put CCTCGGGGGACAACAGGAGGTCAGAGCTGCCAGA in?
Response given: 3

Challenge: Which category does the recorded PBM binding z-score put CTCGAAAGATCGTGCTCAGGTGAGTATACCAAAC in?
Response given: 1

Challenge: Which category does the recorded PBM binding z-score put GCTATTAGTTGAAAGGGAAACCGAATGATTCTCG in?
Response given: 1

Challenge: Which category does the recorded PBM binding z-score put TCTTGTAGATCAGAGGTTAAGAAAGCCGAAGCCT in?
Response given: 2

Challenge: Which category does the recorded PBM binding z-score put CCTATAAGTTGACCATAAGGGCAACCGAAGCTCG in?
Response given: 2

Challenge: Which category does the recorded PBM binding z-score put TCGAGTAGGTTACCAATGAGGCATTCAGCTTTCT in?
Response given: 2

Challenge: Which category does the recorded PBM binding z-score put ACTCGGAGGACAAAGGTCAGACCTACGCCAGTGA in?
Response given: 3

Challenge: Which category does the recorded PBM binding z-score put TGAACGAGGTTAAAGATCAGGGAACGTGGCGTCG in?
Response given: 2

Challenge: Which category does the recorded PBM binding z-score put TCATATAGGTAAATGCTAGGTGAGAGTCCGATCT in?
Response given: 1

Challenge: Which category does the recorded PBM binding z-score put CCTACTGGGCGATCAGGTCATTGATATCAACGTT in?
Response given: 2

Challenge: Which category does the recorded PBM binding z-score put GCGACTGGGCCAAAGCAGGTTACCATAAGGTTGG in?
Response given: 1

Challenge: Which category does the recorded PBM binding z-score put TGAATGAGGTTATACGATCAGGGAACGTTGCAAA in?
Response given: 2

Challenge: Which category does the recorded PBM binding z-score put ATCGAGAGGTCGAAGGTGAGTATACCCACCCGAA in?
Response given: 2

Challenge: Which category does the recorded PBM binding z-score put CGAAGTAGGTCAGAACAGGACAGTGAAGGATGAT in?
Response given: 2

Challenge: Which category does the recorded PBM binding z-score put GGAACGAGGGCATTCGAGTTAATAGCATGGCGAT in?
Response given: 2

Challenge: Which category does the recorded PBM binding z-score put ATCTCTAGGTAAAGATAGTTCGGTGAATGCAAAT in?
Response given: 1

Challenge: Which category does the recorded PBM binding z-score put CGTCCAAGGTCAATGCCAGGTCAGTGAAAGCATT in?
Response given: 3

Challenge: Which category does the recorded PBM binding z-score put ACTAGCAAGCCAAGTTTGGGTCACTCAAACAAAG in?
Response given: 2

Challenge: Which category does the recorded PBM binding z-score put AACACAGGGTCACTAGGCCAGAGTAGGTACGAAT in?
Response given: 3

Challenge: Which category does the recorded PBM binding z-score put ATATGTAGGTTAAGGGTCATTAAGGTTGGTTCGC in?
Response given: 3

Challenge: Which category does the recorded PBM binding z-score put TCTAGCAGGCCAGAAGGTCACTCAAGAGGTACGG in?
Response given: 3

Challenge: Which category does the recorded PBM binding z-score put ATACCAAGGTAATCGTGAGGTCGTTGATACTAAC in?
Response given: 2

Challenge: Which category does the recorded PBM binding z-score put GCGACTGGGGCAAAGCAGGTTCCCATAAGGTTGG in?
Response given: 1

Challenge: Which category does the recorded PBM binding z-score put GCTACCAGGCCATTTGGGTCACTCAATGACGGGC in?
Response given: 2

Challenge: Which category does the recorded PBM binding z-score put GCTAGCAGGCCATTTGGCTCACTCAATGACGGGC in?
Response given: 1

Challenge: Which category does the recorded PBM binding z-score put CAAACTAGGTCACCGGAAGGTCAAAGGCCGCATG in?
Response given: 3

Challenge: Which category does the recorded PBM binding z-score put GGAACGAAGGCAAAGTTGATAGCATCTGTCGACG in?
Response given: 1

Challenge: Which category does the recorded PBM binding z-score put CCTTACGGGTCACGAGGTTATAACACGACGAGCG in?
Response given: 3

Challenge: Which category does the recorded PBM binding z-score put CCAACTAGGTCAAGAGGTCAAAGTCCGCTTCCCG in?
Response given: 3

Challenge: Which category does the recorded PBM binding z-score put ACTAGTAGGCCAAGTTTGGGTCACTCAAACAAAG in?
Response given: 2

Challenge: Which category does the recorded PBM binding z-score put GGAACGAGGGCAAAGTTGATAGGATCTGTCGACG in?
Response given: 2

Challenge: Which category does the recorded PBM binding z-score put CCGACTGGGGCACAAGGTTACCATAAGCCAGCCC in?
Response given: 2

Challenge: Which category does the recorded PBM binding z-score put GCTGCTATGTCAGGTTGGTCAGCTAACGGGTACG in?
Response given: 1

Challenge: Which category does the recorded PBM binding z-score put AAAATGAGGTTATACGTAGATCAGGGAAGAAAGT in?
Response given: 2

Challenge: Which category does the recorded PBM binding z-score put TAGCCTAGGTCATGAGGGCCAGTATAGTGTCGGC in?
Response given: 3

Challenge: Which category does the recorded PBM binding z-score put CAAACTAGGTCACGAAAGGACAAAGTCGAATGAC in?
Response given: 3

Challenge: Which category does the recorded PBM binding z-score put TCTCGGAGGACACGAAGGTCAGAGTTTTCCAGAG in?
Response given: 3

Challenge: Which category does the recorded PBM binding z-score put GTACCAAGGTGAATAGGTCGTTGAAGAGTAGGCG in?
Response given: 2

Challenge: Which category does the recorded PBM binding z-score put CCGACTGGGGCAGAAAGGTTACCATGCCATCCGG in?
Response given: 2

Challenge: Which category does the recorded PBM binding z-score put CGAACTAGCTCAGAACAGGACAGTGAAGGATGAT in?
Response given: 1

Challenge: Which category does the recorded PBM binding z-score put TTACCATGGTGAGCTGAGGTCGTTGATCCAACTC in?
Response given: 1

Challenge: Which category does the recorded PBM binding z-score put TCGAGTAGGTTAGTCGGCGCATTCAGCCAACATA in?
Response given: 1

Challenge: Which category does the recorded PBM binding z-score put CCTTACGGGTCAAGGTTATAACACGGGTGGTACG in?
Response given: 3

Challenge: Which category does the recorded PBM binding z-score put CCTACTGGGCCAGGGTCATTGATCAGTCAAAGCA in?
Response given: 2

Challenge: Which category does the recorded PBM binding z-score put CCGACTGTGGCAAAGGTTACCATACTCAGTACGA in?
Response given: 2

Challenge: Which category does the recorded PBM binding z-score put GATACAGGGACAGCTAGAGGCCAGAGTATGGAAA in?
Response given: 2

Challenge: Which category does the recorded PBM binding z-score put ATCTCTAGGGAACCAAGTTCAGTGAATGCCGAAC in?
Response given: 1
